# Test system: GFP-eIF2α in HEK293 cells
# ASSAY_INFO: PERK cellular assay, TR-FRET in HEK293-EGFP-eIF2a cells after tunicamycin-induced ER stress
# Format: cell-based
# CONDITION_LABEL: HEK293-EGFP-eIF2a cells, tunicamycin 2 hours; read-out: Cellular eIF2α IC50
# Procedure: Stable cell lines were created in HEK293 cells using lentiviral particles harboring an expression vector for GFP-eIF2α. Cells were selected using puromycin and enriched using fluorescence activated cell sorting against GFP. […] Cells were lysed and TR-FRET was measured in an EnVision plate reader (PerkinElmer). […] IC50 values were calculated using 4-parameter logistical fitting in XLFit.
PARAMETER_MEASURED: IC50

MOLECULE: Cc1nc(N)c2c(-c3ccc(NC(=O)C(O)c4cccc(F)c4)cc3OC(F)(F)F)cn(C)c2n1 (single isomer, unassigned) [Example 22]
DATA_VALUE: > 5000 nM
--
MOLECULE: Cc1nc(N)c2c(-c3ccc(NC(=O)C(O)c4cccc(C(F)(F)F)c4)nc3C)cn(C)c2n1 (stereo not drawn) [Example 129]
DATA_VALUE: 51 to 100 nM

Requested field: IC50. Item: Cc1cc(NC(=O)C(O)c2cccc(F)c2)ccc1-c1cn(C)c2ncnc(N)c12 (stereo not drawn) [Example 11]
1 to 25 nM

---

# STUDY_SYSTEM: EIF2AK3 (PERK) catalytic domain (amino acids 536-1116) (Homo sapiens, UniProt Q9NZJ5)
# Construct: EIF2AK3 (PERK) catalytic domain (amino acids 536-1116)
# Sequence (Q9NZJ5 536-1116): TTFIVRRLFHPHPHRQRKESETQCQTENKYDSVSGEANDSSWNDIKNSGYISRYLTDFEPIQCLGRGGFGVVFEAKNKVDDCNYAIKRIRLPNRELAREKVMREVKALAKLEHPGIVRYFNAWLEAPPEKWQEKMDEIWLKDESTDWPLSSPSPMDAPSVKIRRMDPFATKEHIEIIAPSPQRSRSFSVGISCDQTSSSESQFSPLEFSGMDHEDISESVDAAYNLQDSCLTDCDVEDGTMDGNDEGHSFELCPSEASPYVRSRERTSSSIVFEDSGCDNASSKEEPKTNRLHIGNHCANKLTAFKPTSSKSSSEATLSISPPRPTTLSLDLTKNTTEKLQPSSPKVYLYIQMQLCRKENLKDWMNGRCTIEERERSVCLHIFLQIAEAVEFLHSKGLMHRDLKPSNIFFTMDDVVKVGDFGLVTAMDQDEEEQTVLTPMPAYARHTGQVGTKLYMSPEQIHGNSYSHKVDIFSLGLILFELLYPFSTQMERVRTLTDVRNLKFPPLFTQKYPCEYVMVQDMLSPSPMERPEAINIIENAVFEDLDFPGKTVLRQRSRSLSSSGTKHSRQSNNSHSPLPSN
# ASSAY_INFO: PERK in vitro activity assay (isolated), TR-FRET kinase assay
# Assay type: biochemical
# CONDITION_LABEL: isolated PERK enzyme, 1.5 μM ATP; read-out: Biochemical IC50
pIC50: −log10 of the molar value.
PARAMETER_MEASURED: pIC50

Worked cases, pIC50 given:
MOLECULE: Cc1nc(N)c2c(-c3ccc(NC(=O)C(O)c4cccc5cnn(C)c45)cc3C)cn(C)c2n1 (single isomer, unassigned) [Example 64]
STUDY_SYSTEM: EIF2AK3 (PERK) catalytic domain (amino acids 536-1116) (Homo sapiens, UniProt Q9NZJ5)
pIC50: 6.30 to 6.60
//
MOLECULE: Cc1cccc(C(O)C(=O)Nc2ccc(-c3cn(C)c4nc(C)nc(N)c34)c(Cl)c2)c1 (stereo not drawn) [Example 95]
STUDY_SYSTEM: EIF2AK3 (PERK) catalytic domain (amino acids 536-1116) (Homo sapiens, UniProt Q9NZJ5)
pIC50: 7.00 to 7.29

Name the recorded pIC50 for Cc1cc(NC(=O)C(O)c2cccc(C(F)(F)F)c2)ccc1-c1cn(C)c2ncnc(N)c12 (stereo not drawn) [Example 47] .
7.60 to 9.00

---

Collected IC50 values appear next to each entry.
# STUDY_SYSTEM: EIF2AK3 (PERK) catalytic domain (amino acids 536-1116) (Homo sapiens)
# Construct: EIF2AK3 (PERK) catalytic domain (amino acids 536-1116)
# ASSAY_INFO: PERK in vitro activity assay (isolated), TR-FRET kinase assay
# Type: biochemical
# CONDITION_LABEL: isolated PERK enzyme, 1.5 μM ATP; read-out: Biochemical IC50

Worked examples follow.
MOLECULE: Cc1cc(NC(=O)C(C)(O)c2ccccc2)ccc1-c1cn(C)c2ncnc(N)c12 (stereo not drawn)
PARAMETER_MEASURED: IC50
DATA_VALUE: 51 to 100 nM

MOLECULE: CCc1cccc(C(O)C(=O)Nc2ccc(-c3cn(C)c4nc(C)nc(N)c34)c(Cl)c2)c1 (stereo not drawn) [Example 97]
PARAMETER_MEASURED: IC50
DATA_VALUE: 1 to 25 nM

Next up:
Look up IC50 for this molecule: Cn1cc(-c2ccc(NC(=O)C(O)c3cccc(F)c3)cc2C(F)(F)F)c2c(N)ncnc21 (stereo not drawn)
1 to 25 nM
